TEST: Absorption spectrum of n-decane solution: solution color, absorption maximum wavelength λmax, molar extinction coefficient ε
Assay type: physicochemical
EXPERIMENTAL_PARAMETERS: at λmax
I'd appreciate it if you could supply ε (molar extinction coefficient) values for the items below.
Numbers only, in L/mol/cm.

Guide cases for ε (molar extinction coefficient), answers given:
CCCCc1ccc(N=Nc2sc(N=Nc3cc(OCC)c(N(CC(CC)CCCC)CC(CC)CCCC)cc3OCC)c(C#N)c2C)cc1 (stereo not shown)
54000
CCCCCc1ccc(N=Nc2cc(C(=O)OCCC)c(N=Nc3ccc(N(CC(CC)CCCC)CC(CC)CCCC)cc3CC)s2)cc1 (stereo not shown)
50000
CCCCC(CC)CN(CC(CC)CCCC)c1ccc(N=Nc2sc(N=Nc3ccc(CCC)cc3)c(C)c2C#N)c(NC(C)=O)c1 (stereo not shown)
70000

Query compound follows.
Value of ε (molar extinction coefficient) reported for the compound CCCCc1ccc(N=Nc2sc(N=Nc3ccc(N(CC(CC)CCCC)CC(CC)CCCC)cc3C)c(C#N)c2C)cc1 (stereo not shown) is 62000

* * *

TEST: Solubility C of the compound in n-decane at 5° C. (saturated solution, absorbance) and product εC
Format: physicochemical
EXPERIMENTAL_PARAMETERS: product of ε and saturation concentration C in n-decane at 5° C.
I'd appreciate it if you could supply εC values for the items below.

Guide cases for εC, answers given:
CCCCc1ccc(N=Nc2sc(N=Nc3ccc(N(CC(CC)CCCC)CC(CC)CCCC)cc3C)c(C#N)c2C)cc1 (centres unmarked)
1220 cm⁻¹
CCCCCCSc1nnc(N=Nc2cc(OC)c(N(Cc3ccc(C(C)(C)C)cc3)Cc3ccc(C(C)(C)C)cc3)cc2NC(C)=O)s1 [compound 1, reference compound]
4700 cm⁻¹

Query molecule follows.
Value of εC reported for the molecule CCCCc1ccc(N=Nc2cc(C(=O)OCCC)c(N=Nc3ccc(N(CC(CC)CCCC)CC(CC)CCCC)cc3C)s2)cc1 (centres unmarked) is 9500 cm⁻¹

* * *

TEST: Absorption spectrum of n-decane solution: solution color, absorption maximum wavelength λmax, molar extinction coefficient ε
Type: physicochemical
EXPERIMENTAL_PARAMETERS: at λmax
Experimental: The solution color, absorption maximum wavelength (λmax), solubility C in 5° C. n-decane, molar extinction coefficient ε, and εC of each ink are summarized in Table 4. One milligram of each of compound 1 and comparative compounds 1 and 2 was dissolved in 100 mL of the solvent, and the solution was examined for absorption spectrum with Hitachi Spectrophotometer U-4100 using a quartz cell having a measuring optical-path length of 10 mm. […]
I'd appreciate it if you could supply ε (molar extinction coefficient) values for the items below.
Answers are plain numbers, in L/mol/cm.

Give ε (molar extinction coefficient) for each listed item.
1. CCCCc1ccc(N=Nc2cc(C(=O)OCCC)c(N=Nc3ccc(N(CC(CC)CCCC)CC(CC)CCCC)cc3C)s2)cc1 (stereo not shown) [Compound 7]
2. CCCCc1ccc(N=Nc2cc(C#N)c(N=Nc3sc(N(CC(CC)CCCC)CC(CC)CCCC)nc3C(C)(C)C)s2)cc1 (stereo not shown) [Compound 10]
3. CCCCCCSc1nnc(N=Nc2cc(OC)c(N(Cc3ccc(C(C)(C)C)cc3)Cc3ccc(C(C)(C)C)cc3)cc2NC(C)=O)s1 [compound 1, reference compound]
4. CCCCc1ccc(N=Nc2cc(C#N)c(N=Nc3sc(N(CC(CC)CCCC)CC(CC)CCCC)nc3C(C)(C)C)s2)c(C)c1 (stereo not shown) [Compound 11]

Out:
51000
57000
50000
59000

* * *

I'd appreciate it if you could supply Absorption maximum wavelength λmax values for the items below.
TEST: Absorption spectrum of n-decane solution: solution color, absorption maximum wavelength λmax, molar extinction coefficient ε
Assay type: physicochemical
EXPERIMENTAL_PARAMETERS: 10 mm quartz cell
Protocol: The solution color, absorption maximum wavelength (λmax), solubility C in 5° C. n-decane, molar extinction coefficient ε, and εC of each ink are summarized in Table 4. One milligram of each of compound 1 and comparative compounds 1 and 2 was dissolved in 100 mL of the solvent, and the solution was examined for absorption spectrum with Hitachi Spectrophotometer U-4100 using a quartz cell having a measuring optical-path length of 10 mm. […]
Answers are plain numbers, in nm.

Guide cases for Absorption maximum wavelength λmax, answers given:
CCCCc1ccc(N=Nc2cc(C#N)c(N=Nc3sc(N(CC(CC)CCCC)CC(CC)CCCC)nc3C(C)(C)C)s2)c(C)c1 (stereo not drawn) [Compound 11]
595
CCCCc1ccc(N=Nc2cc(C#N)c(N=Nc3sc(N(CC(CC)CCCC)CC(CC)CCCC)nc3C(C)(C)C)s2)cc1 (stereo not drawn) [Compound 10]
595
CCCCCc1ccc(N=Nc2cc(C(=O)OCCC)c(N=Nc3ccc(N(CC(CC)CCCC)CC(CC)CCCC)cc3CC)s2)cc1 (stereo not drawn) [Compound 5]
591
CCCCc1ccc(N=Nc2sc(N=Nc3ccc(N(CC(CC)CCCC)CC(CC)CCCC)cc3C)c(C#N)c2C)cc1 (stereo not drawn) [Compound 2]
608
CCCCc1ccc(N=Nc2cc(C(=O)OCCC)c(N=Nc3ccc(N(CC(CC)CCCC)CC(CC)CCCC)cc3C)s2)cc1 (stereo not drawn) [Compound 7]
590

Value of Absorption maximum wavelength λmax reported for the compound CCCCC(CC)CN(CC(CC)CCCC)c1ccc(N=Nc2sc(N=Nc3ccc(CCC)cc3)c(C)c2C#N)c(NC(C)=O)c1 (stereo not drawn) [Compound 3] is 617
